- assayed_system: 5-hydroxytryptamine receptor 2A (Homo sapiens)
- experiment_description: 5-hydroxytryptamine receptor 2A (HTR2A) small molecule antagonists, cell-based qHTS assay (AID 1963586); also: nearly all actives have a fitted effect of over 45% in size
- cond: HTR2A-CHO cells, DOI-induced calcium flux, fluorescence; series mostly up to 61.5 µM
- Description: National Center for Advancing Translational Sciences [NCATS] Division of Preclinical Innovation [DPI] U.S. Environmental Protection Agency [EPA] National Institutes of Environmental Health Sciences [NIEHS] National Toxicology Program [NTP] […] HTR2A-CHO cells were dispensed at 2000 cells/3uL/well in 1536-well black-clear bottom plates using a Multidrop Dispenser. […] The fluorescence intensity in the plates was measured using FDSS 7000EX kinetic plate reader for 3 min at 1 sec intervals.
Results filed as inconclusive are left out. Active and inactive are the calls of the source. Calls follow the shape of the full dose curve.
Labels: 1 (active), 0 (inactive)

- molecule: "O=C1c2ccccc2-c2ccccc21"
  class_assignment: 0
- molecule: "OCCCCCCCCCCCCBr"
  class_assignment: 0
- molecule: "COP(=O)(OC)OC(c1ccc(Cl)cc1)P(=O)(OC)OC (stereo not given)"
  class_assignment: 0
- molecule: "CC1=CC(=O)CCC1"
  class_assignment: 0
- molecule: "CC(C)c1ccc2cc(C(C)C)ccc2c1"
  class_assignment: 0
- molecule: "O=C1c2ccccc2C(=O)c2c1ccc(O)c2O"
  class_assignment: 0
- molecule: "Cc1c(Cl)cccc1Cl"
  class_assignment: 0
- molecule: "CCCCCCCC#N"
  class_assignment: 0
- molecule: "CC(COc1ccccc1)NN (stereo not given)"
  class_assignment: 0
- molecule: "Cc1cc(O)c2c(c1)C(=O)c1cc(O)cc(O)c1C2=O"
  class_assignment: 0
- molecule: "Cc1cc(NC(=O)C(=O)O)cc(C)c1Oc1ccc(O)c2c1CCC2"
  class_assignment: 0
- molecule: "CCn1nc(C)c2c1C(=O)NCC(c1ccc(O)cc1)=N2"
  class_assignment: 0
- molecule: "O=C1CCCC(=O)O1"
  class_assignment: 0
- molecule: "O=C(/C=C/c1ccccc1)OCCc1ccccc1"
  class_assignment: 0
- molecule: "c1ccc(-c2nc[nH]c2-c2ccccc2)cc1"
  class_assignment: 1
